# systemName: HIV-1 Env of pseudovirus isolate MGRM-G-024 (subtype G) (HIV-1)
# testDetails: cell-based or functional assay
IC50 strictly less than 0.06 µg/mL = fulfilled. Otherwise not fulfilled.

binder	classification
PGT-126 (antibody, V domains shown) VH: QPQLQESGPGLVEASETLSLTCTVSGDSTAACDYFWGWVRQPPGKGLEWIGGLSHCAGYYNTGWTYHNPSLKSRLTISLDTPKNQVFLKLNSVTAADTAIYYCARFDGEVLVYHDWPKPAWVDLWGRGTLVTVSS VL: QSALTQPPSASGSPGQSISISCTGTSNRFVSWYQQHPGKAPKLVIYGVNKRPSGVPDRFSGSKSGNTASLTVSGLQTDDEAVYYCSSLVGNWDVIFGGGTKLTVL	not fulfilled
PGT-130 (antibody, V domains shown) VH: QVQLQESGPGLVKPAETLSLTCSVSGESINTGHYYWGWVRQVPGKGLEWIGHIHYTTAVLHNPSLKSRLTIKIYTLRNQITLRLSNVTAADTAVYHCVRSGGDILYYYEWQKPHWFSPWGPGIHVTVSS VL: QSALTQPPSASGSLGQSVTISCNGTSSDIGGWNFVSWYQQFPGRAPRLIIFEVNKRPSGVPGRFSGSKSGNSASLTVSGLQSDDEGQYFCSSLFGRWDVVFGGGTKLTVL	not fulfilled

Identify whether the binder PGT-125 (antibody, V domains shown) VH: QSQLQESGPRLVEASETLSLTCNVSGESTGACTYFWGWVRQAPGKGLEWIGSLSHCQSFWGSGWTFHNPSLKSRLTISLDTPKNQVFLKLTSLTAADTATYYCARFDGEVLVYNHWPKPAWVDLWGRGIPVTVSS VL: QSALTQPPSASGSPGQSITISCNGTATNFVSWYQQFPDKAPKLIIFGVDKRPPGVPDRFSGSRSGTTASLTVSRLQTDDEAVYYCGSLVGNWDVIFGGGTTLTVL records IC50 below 0.06 µg/mL.
not fulfilled

Identify whether the binder PGT-136 (antibody, V domains shown) VH: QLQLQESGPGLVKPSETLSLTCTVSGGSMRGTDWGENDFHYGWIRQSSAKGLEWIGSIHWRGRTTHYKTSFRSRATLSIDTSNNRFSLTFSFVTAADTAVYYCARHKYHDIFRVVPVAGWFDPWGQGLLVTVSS VL: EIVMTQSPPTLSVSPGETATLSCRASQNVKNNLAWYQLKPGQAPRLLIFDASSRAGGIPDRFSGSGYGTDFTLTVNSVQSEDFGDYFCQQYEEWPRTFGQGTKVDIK records IC50 below 0.06 µg/mL.
not fulfilled

Identify whether the binder PGT-137 (antibody, V domains shown) VH: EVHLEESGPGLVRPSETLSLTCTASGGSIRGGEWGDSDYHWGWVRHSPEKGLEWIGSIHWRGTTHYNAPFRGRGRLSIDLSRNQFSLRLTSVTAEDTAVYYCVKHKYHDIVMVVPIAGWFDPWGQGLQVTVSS VL: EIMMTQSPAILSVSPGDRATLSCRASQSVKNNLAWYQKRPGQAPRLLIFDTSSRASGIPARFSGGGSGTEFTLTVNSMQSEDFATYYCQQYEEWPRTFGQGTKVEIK records IC50 below 0.06 µg/mL.
fulfilled
